Reference for the values: patent US5591714A

System: Haemophilus influenzae 76
Experiment: MIC, standard agar-dilution assay
Assay type: cell-based
Protocol: The formula I compounds have in vitro and in vivo activity against Gram-positive pathogenic bacteria. The MIC's were determined using a standard agar-dilution assays.
A collection of molecules and their measured MIC

## Task # assay system Haemophilus influenzae 76: give MIC of CNC(CC(C)C)C(=O)NC1C(=O)NC(CC(N)=O)C(=O)NC2C(=O)NC3C(=O)NC(C(=O)NC(C(=O)O)c4cc(O)cc(O)c4-c4cc3ccc4O)C(OC3CC(C)(NCc4ccccc4)C(O)C(C)O3)c3ccc(c(Cl)c3)Oc3cc2cc(c3OC2OC(CO)C(O)C(O)C2O)Oc2ccc(cc2Cl)C1O (stereo not drawn)
## Result > 128 mg/L

## Task # assay system Haemophilus influenzae 76: give MIC of `CCN(CC)c1ccc(CN[C@@]2(C)C[C@H](O[C@H]3[C@H](Oc4c5cc6cc4Oc4ccc(cc4Cl)[C@@H](O)[C@@H](NC(=O)[C@@H](CC(C)C)NC)C(=O)N[C@@H](CC(N)=O)C(=O)N[C@H]6C(=O)N[C@H]4C(=O)N[C@H](C(=O)N[C@H](C(=O)O)c6cc(O)cc(O)c6-c6cc4ccc6O)[C@H](O[C@H]4C[C@](C)(N)[C@@H](O)[C@H](C)O4)c4ccc(cc4)O5)O[C@H](CO)[C@@H](O)[C@@H]3O)O[C@@H](C)[C@@H]2O)cc1`
## Result > 128 mg/L

## Task # assay system Haemophilus influenzae 76: give MIC of `CCCCCN[C@@]1(C)C[C@H](O[C@H]2[C@H](Oc3c4cc5cc3Oc3ccc(cc3Cl)[C@@H](O)[C@@H](NC(=O)[C@@H](CC(C)C)N(C)CCCCC)C(=O)N[C@@H](CC(N)=O)C(=O)N[C@H]5C(=O)N[C@H]3C(=O)N[C@H](C(=O)N[C@H](C(=O)O)c5cc(O)cc(O)c5-c5cc3ccc5O)[C@H](O[C@H]3C[C@](C)(N)[C@@H](O)[C@H](C)O3)c3ccc(cc3)O4)O[C@H](CO)[C@@H](O)[C@@H]2O)O[C@@H](C)[C@@H]1O`
## Result > 128 mg/L
